Target system: T1, Rnd2 GTPase (residues 1-227), loaded with GMPPNP (UniProt P52198 1-227)
T1 sequence (looked up): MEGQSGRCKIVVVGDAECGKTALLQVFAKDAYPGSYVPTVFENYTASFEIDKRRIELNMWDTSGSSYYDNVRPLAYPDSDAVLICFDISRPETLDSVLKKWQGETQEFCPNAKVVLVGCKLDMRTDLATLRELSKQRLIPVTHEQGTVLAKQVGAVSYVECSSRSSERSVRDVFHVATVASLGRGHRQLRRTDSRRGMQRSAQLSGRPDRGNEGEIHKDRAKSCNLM
Test protocol: ITC
Assay readout: dH (kcal/mol)
Numbers only, in kcal/mol.

These solved cases illustrate the format of a correct answer.
plexin-D1 RBD S1614V/T1615A (domain or fragment) AKPRNLNVSFQGCGMDSLSVRAMDTDTLTQVKEKILEAFCKNVPYSQWPRAEDVDLEWFASVAQSYILRDLDDTSVVEDGRKKLNTLAHYKIPEGASLAMSLIDKKDNTLGRVKDLDTEKYFHLVL; -1.4
plexin-B1 RBD L1815Y (domain or fragment) YRPLTLNALLAVGPGAGEAQGVPVKVLDCDTISQAKEKMLDQLYKGVPLTQRPDPRTLDVEWRSGVAGHYILSDEDVTSEVQGLWRRLNTLQHYKVPDGATVALVPC; -1.6

// below: dH requested for another binder
For the binder plexin-C1 RBD T1264V/R1265V (domain or fragment) TVALNVVFEKIPENESADVCRNISVNVLDCDTIGQAKEKIFQAFLSKNGSPYGLQLNEIGLELQMGVVQKELLDIDSSSVILEDGITKLNTIGHYEISNGSTIKVFKK , what dH is on record?
-1.5
